Test system: C2A
Test: qHTS profiling for inhibitors of Plasmodium falciparum proliferation (AID 504749); also: nearly all actives have a fitted effect of over 60% in size
Conditions: P. falciparum in erythrocytes, SYBR Green DNA, 72 h; series mostly up to 28.7 µM
Records with an inconclusive call do not appear. Activity calls are given as the source filed them. Calls follow the shape of the dose curve; as a rule, active = well fitted inhibition curve with a large enough effect; inconclusive = small, poorly fitted or top-dose-only effect; inactive = flat fitted curve, though single readings scatter.
Classes used: active, inactive

Compound	Tested target	Label class
CC(C)CN(C[C@@H](OP(=O)(O)O)[C@H](Cc1ccccc1)NC(=O)O[C@@H]1CCOC1)S(=O)(=O)c1ccc(N)cc1	C2A	inactive
CCC(=O)O[C@@H](OP(=O)(CCCCc1ccccc1)CC(=O)N1C[C@H](C2CCCCC2)C[C@H]1C(=O)O)C(C)C (stereo partly specified)	C2A	inactive
CCC(C)n1ncn(-c2ccc(N3CCN(c4ccc(OCC5COC(Cn6cncn6)(c6ccc(Cl)cc6Cl)O5)cc4)CC3)cc2)c1=O (stereo unspecified)	C2A	inactive
NC1=NC(S)C2N=CN=C2N1 (stereo unspecified)	C2A	inactive
CN(C)CCCCCCN(C)C	C2A	inactive
CCN1/C(=C/C=C/C=C/c2sc3ccccc3[n+]2CC)Sc2ccccc21	C2A	active
O=NCc1ccc([N+](=O)[O-])o1	C2A	inactive
O=C(O)c1cc(O)c2c(c1)[C@H]([C@H]1c3cc(C(=O)O)cc(O)c3C(=O)c3c(O[C@@H]4OC(CO)C(O)C(O)C4O)cccc31)c1cccc(O[C@@H]3OC(CO)C(O)C(O)C3O)c1C2=O (stereo partly specified)	C2A	inactive
CC1CCC(C(C)C)C(OC(=O)c2ccccc2O)C1 (stereo unspecified)	C2A	inactive
CO/N=C(/C(=O)N[C@@H]1C(=O)N2C(C(=O)O)=CCS[C@H]12)c1csc(N)n1	C2A	inactive
C1OCOCO1	C2A	inactive
